- Test system: NCI-H522 lung
- test-protocol: NCI-60 one-dose screen, 48 h
- experimental-context: 10 µM
Compounds without any hit were thinned out: in the full panel of roughly 83,000, 20% have a hit. The source made the active and inactive calls. The calls were made as follows: active = growth percent below 10; inactive = the rest.
The categories you may choose from are active, inactive

| compound | discrete-label |
| --- | --- |
| CCCOC(=O)c1ccc2c(c1)[N+](=O)C(C(=O)c1ccccc1)=C(C(F)(F)F)[N+]2=O | active |
| Cc1nc2cc(Nc3nc(Nc4ccc(F)cc4)nc(-c4cccs4)n3)ccc2n1Cc1ccccc1 | inactive |
| Cc1ccc(S(=O)(=O)c2ccc3[nH]c(=O)[nH]c(=O)c3c2)cc1 | inactive |
| COc1ccc(/C=N/NC(=O)c2cnn3c2NC(c2ccccc2)C3)cc1OC1CCCC1 (centres undefined) | inactive |
| O=c1oc2ccccc2cc1-c1csc(N/N=C/c2cc3ccccc3nc2Cl)n1 | inactive |

Request: Please indicate how the test categorized "Cc1nn(-c2ccccc2)c2nc3nc4c(c(N)c3c(-c3ccc(Cl)cc3)c12)CCCC4" .
Response: inactive

Request: Please indicate how the test categorized "ONc1nc(NO)c2[nH]cnc2n1" .
Response: inactive

Request: Please indicate how the test categorized "O=C(Nc1ccc(F)cc1)c1ccc(C(=O)Nc2ccc(F)cc2)cc1" .
Response: inactive

----------
- System: SK-MEL-5 melanoma
- test-protocol: NCI-60 one-dose screen, 48 h (100 = growth as untreated, 0 = no growth, -100 = all killed)
- experimental-context: 10 µM unless noted
About 83,000 compounds went through this panel and 20% of them were active in at least one assay; those are over-represented in the sample as a whole.
experimental-readout: growth (%)
Just the number in %, nothing appended.

Request: Test system SK-MEL-5 melanoma; read-out growth; what value for "COc1ccc(Sc2ccc3[nH]c(=O)nc(N)c3c2)cc1" ?
Response: 103

Request: Test system SK-MEL-5 melanoma; read-out growth; what value for "O=S(=O)(Nc1ccccc1Cl)c1ccc(-c2cnc(C3CC3)o2)cc1" ?
Response: 17.3

Request: Test system SK-MEL-5 melanoma; read-out growth; what value for "CCCCCCCC/C=C\CCCCCCCCOc1cccc(CC(=O)NCC[N+](C)(C)C)c1" ?
Response: 90.8

Request: Test system SK-MEL-5 melanoma; read-out growth; what value for O=C1c2ccccc2-c2cn(Cc3ccccc3)c3cccc(c23)C1c1cccnc1 (stereo unspecified) ?
Response: 21.7

Request: Test system SK-MEL-5 melanoma; read-out growth; what value for "COc1ccc(-c2[nH]ncc2Nc2cc(OC)c(OC)c(OC)c2)cc1" ?
Response: -11.3

Request: Test system SK-MEL-5 melanoma; read-out growth; what value for "Cc1oc2c(c1C(=O)N1CC[C@@H](N)C1)C(=O)c1c(c(O)c3ccccc3c1O)C2=O" ?
Response: 42.7

Request: Test system SK-MEL-5 melanoma; read-out growth; what value for "c1ccc2cc(Cn3c(-c4ccc5ccccc5c4)[n+](Cc4ccc5ccccc5c4)c4ccccc43)ccc2c1" ?
Response: -97.2

Request: Test system SK-MEL-5 melanoma; read-out growth; what value for "CC(C)OC1=C(Cl)C(=O)c2ccccc2C1=O" ?
Response: 96.8

Request: Test system SK-MEL-5 melanoma; read-out growth; what value for CC(C)(C)[Si](C)(C)OC1[C@@H](CNC(=O)NC(=O)CCl)O[C@@H](n2cnc3c(N)ncnc32)[C@H]1O[Si](C)(C)C(C)(C)C (stereo partly specified) ?
Response: 90.6

Request: Test system SK-MEL-5 melanoma; read-out growth; what value for "Cc1ccc(NS(=O)(=O)c2ccc(-c3cnc(C4CC4)o3)cc2)cc1" ?
Response: 15

Request: Test system SK-MEL-5 melanoma; read-out growth; what value for "O=C(O)c1ccccc1Oc1cc(-c2ccco2)nc(OCCBr)n1" ?
Response: 110

Request: Test system SK-MEL-5 melanoma; read-out growth; what value for "COc1cc2cc(Oc3ccc(NC(=O)Nc4ccc(Cl)c(C(F)(F)F)c4)cc3)c(C)nc2cc1OCCN1CCCCC1" ?
Response: -76.1

Request: Test system SK-MEL-5 melanoma; read-out growth; what value for "O=S(=O)(OCCO)c1ccccc1" ?
Response: 94.4

Request: Test system SK-MEL-5 melanoma; read-out growth; what value for "CSc1nnc(-c2sc3nnc(-c4ccccc4)c(-c4ccccc4)c3c2O)o1" ?
Response: 83.5

Request: Test system SK-MEL-5 melanoma; read-out growth; what value for O=C(c1cnn2c1NC(c1ccc(F)cc1)C2)N1CCCCC1 (stereo unspecified) ?
Response: 97.8

Request: Test system SK-MEL-5 melanoma; read-out growth; what value for O=C(c1ccccc1)C(Br)C(Br)c1cccc([N+](=O)[O-])c1 (stereo unspecified) ?
Response: 77.1

----------
- Tested on: SK-MEL-2 melanoma
- test-protocol: NCI-60 one-dose screen, 48 h (100 = growth as untreated, 0 = no growth, -100 = all killed)
- experimental-context: 10 µM unless noted
Compounds without any hit were thinned out: in the full panel of roughly 83,000, 20% have a hit.
experimental-readout: growth (%)
Just the number in %, nothing appended.

Before answering, review these 2 worked examples.
| compound | units-text | value-observed |
| --- | --- | --- |
| C[C@@H](Oc1cc(-c2cnn(C3CC4(CNC4)C3)c2)cnc1N)c1c(Cl)ccc(F)c1Cl | % | 32.6 |
| O=C1c2ccccc2C(=O)c2c(Nc3ccc(CCO)cc3)ccc(O)c21 | % | 103 |

Request: I'd like to know its growth. The compound in question is CCCCCn1c(=N)n(CC(O)COc2cccc(C)c2)c2ccccc21 (stereo not drawn)
Response: -34.1

----------
Entries and their growth
- System: SN12C renal
- test-protocol: NCI-60 one-dose screen, 48 h (100 = growth as untreated, 0 = no growth, -100 = all killed)
- experimental-context: 10 µM unless noted
- Method: Growth inhibition of the SN12C human tumor cell line is measured as a screen for anti-cancer activity. Cells are grown in 96 well plates and exposed to the test compound for 48 hours. Compounds are tested at a single concentration, which is 10^-5 M for most compounds. The reported endpoint is percent growth (GI% or GIPRCNT), where numbers from 0 - 100% represent growth inhibition, and numbers from -100% - 0 represent cell death. For example, a value of 40 represents 60% growth inhibition. […]
This is part of a sample that, as a whole, favours compounds with a hit. Of some 83,000 tested, about 20% had one in any assay.
Just the number in %, nothing appended.

Before answering, review these 4 worked examples.
| compound | experimental-readout | value-observed |
| --- | --- | --- |
| CCCCC(O)Cn1ncc(C(=O)OCC)c1NC(=O)NCc1ccccc1C(F)(F)F (stereo unspecified) | growth | 99.7 |
| COc1cc(/C=C/C(=O)CC(=O)/C=C/c2cc(Br)c(OC)c(OC)c2)cc(Br)c1OC | growth | 96.6 |
| COc1cc2cc(Oc3ccc(NC(=O)Nc4ccc(Cl)c(C(F)(F)F)c4)cc3)c(C)nc2cc1OCCN1CCCCC1 | growth | -84.7 |
| O=c1oc2ccccc2cc1-c1csc(N=Nc2c(O)[nH]c3ccc(Br)cc23)n1 | growth | 98.7 |

Request: Test system SN12C renal; read-out growth; what value for "Cc1nc2cc(Nc3nc(N4CCCCC4)nc(N4CCOCC4)n3)ccc2n1Cc1ccccc1" ?
Response: 52.2

Request: Test system SN12C renal; read-out growth; what value for "Cc1cc(Cl)c2c(Cl)ccc(Cl)c2n1" ?
Response: 113

----------
- Test system: EKVX NSCLC
- test-protocol: NCI-60 one-dose screen, 48 h
- experimental-context: 10 µM unless noted
About 83,000 compounds went through this panel and 20% of them were active in at least one assay; those are over-represented in the sample as a whole. Active and inactive are the calls of the source. The calls were made as follows: active = growth percent below 10; inactive = the rest.
The categories you may choose from are active, inactive

Solved entries (count: 10):
| compound | discrete-label |
| --- | --- |
| O=C(N/N=C/c1ccc(F)cc1)c1[nH]c2ccc(I)cc2c1-c1ccccc1 | active |
| O=C(O)C[C@H](O)C[C@H](O)/C=C/c1c(C2CC2)nc2ccccc2c1-c1ccc(F)cc1 | inactive |
| CC1SC(c2ccc(Cl)cc2)N(CCc2cccs2)C1=O (stereo not given) | active |
| O=C1/C(=C/c2ccc([N+](=O)[O-])cc2)Oc2ccc(O)cc21 | inactive |
| COc1ccc(C2SC(C)C(=O)N2CCc2cccs2)cc1OC (stereo not given) | inactive |
| CN1CCN(C)c2cncc(Br)c2C1=O | active |
| CCCN1CCN(c2ccc3nc(-c4ccc5nc(-c6ccc(C(F)(F)F)cc6)[nH]c5c4)[nH]c3c2)CC1 | active |
| CCOC(=O)n1cc(C2=C(c3cn(C)c4ccccc34)COC2=O)c2ccccc21 | inactive |
| CSc1nnc(-c2sc3nnc(-c4ccccc4)c(-c4ccccc4)c3c2O)o1 | inactive |
| COc1cc(-c2nc(SC(C)C)nc(Nc3ccccc3C)c2C#N)cc(OC)c1OC | inactive |

Request: Please indicate how the test categorized COC(=O)C1C2CC3c4[nH]c5cc(OC)ccc5c4CCN3CC2CC(OC2CCCCO2)C1OC (stereo not given) .
Response: inactive

Request: Please indicate how the test categorized "O=c1oc2ccccc2cc1-c1csc(N/N=C/c2cc3ccccc3nc2Cl)n1" .
Response: inactive

Request: Please indicate how the test categorized CCC12CCC3c4ccc(O)cc4CCC3C1CC(O)C2O (stereo not given) .
Response: inactive

Reference source for all entries: PubChem BioAssay (NCI)
